Molecular target: 5-HT1A receptor (Rattus norvegicus, UniProt P19327)
Construct: The rat cerebral cortex was homogenized in 50 mM Tris hydrochloride buffer; from tissue; host or cells: rat cerebral cortex membranes
Sequence (P19327 1-422): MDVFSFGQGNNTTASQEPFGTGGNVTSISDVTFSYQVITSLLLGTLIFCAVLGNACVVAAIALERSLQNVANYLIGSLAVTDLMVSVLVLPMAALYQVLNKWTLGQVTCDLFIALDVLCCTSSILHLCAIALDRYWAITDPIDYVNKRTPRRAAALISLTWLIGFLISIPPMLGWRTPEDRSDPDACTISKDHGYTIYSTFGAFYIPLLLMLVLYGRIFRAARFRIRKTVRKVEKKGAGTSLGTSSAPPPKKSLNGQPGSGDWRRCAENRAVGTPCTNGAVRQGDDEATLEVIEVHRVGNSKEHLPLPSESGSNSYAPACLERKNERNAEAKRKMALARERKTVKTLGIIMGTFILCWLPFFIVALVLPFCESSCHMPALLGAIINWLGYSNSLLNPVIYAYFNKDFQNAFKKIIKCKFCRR
Assay: Selectivity for receptors: 5-HT1A receptor, inhibition of [^3 H] 8-OH-DPAT binding to rat cerebral cortex membrane
readout kind: IC50 (nM)
Express the result in nM but write the number alone.

Form field IC50, entry COc1cc(N)c(Cl)cc1C(=O)N[C@@H]1CCN(CCCOc2ccc(F)cc2)C[C@@H]1OC (relative stereo) [Comparative Compound 1, Cisapride, reference compound] : 64.7
